Biological target: DDR2 (Homo sapiens (Human))
Assay: DDR2 LanthaScreen Europium Kinase Binding assay
Conditions: binding; 5 nM DDR2, 10 nM Kinase Tracer 178, 1 hour at rt; Ki from IC50 by Cheng-Prusoff; read-out: Ki DDR2
Protocol: DDR1 and DDR2 binding assays were performed using Life Technologies LanthaScreen™ Europium Kinase Binding assay. […] The ratio of fluorescence emission 665 nm/615 nm after excitation at 340 nm was obtained using the Tecan Spark 20M plate reader. IC50 values were determined in GraphPad Prism 7.0 software, using 4 parameter model: log(inhibitor) vs. response. […]
pKi: −log10 of the molar value.
TEST_READOUT: pKi

INSERT INTO measurements (compound, test_readout, data_value) VALUES
  ('CNC(=O)c1cc(N2CC[C@H](c3cc(C(=O)Nc4cccc(C(F)(F)F)c4)ccc3C)C2)ccn1', 'pKi', '7.22 to 7.60'),
  ('Cc1ccc(C(=O)Nc2cccc(C(F)(F)F)c2)cc1[C@@H]1CCN(c2cncc(Nc3cnn(C)c3)c2)C1', 'pKi', '7.60 to 8.00'),
  ('Cc1ccc(C(=O)Nc2cccc(C(F)(F)F)c2)cc1C1CCN(c2cncc(N3CCN(C)CC3)c2)C1 (centres unmarked)', 'pKi', '7.60 to 8.00'),
  ('Cc1ccc(C(=O)Nc2cccc(C(F)(F)F)c2)cc1[C@@H]1CCN(c2ccc(Nc3cnn(C)c3)nc2)C1', 'pKi', '7.22 to 7.60'),
  ('CC(=O)Nc1cc(N2CC[C@@H](c3cc(C(=O)Nc4cccc(C(F)(F)F)c4)ccc3C)C2)ccn1', 'pKi', '> 8.00');

---

Target: DDR2 (Homo sapiens (Human), UniProt Q16832)
Sequence (Q16832 22-855): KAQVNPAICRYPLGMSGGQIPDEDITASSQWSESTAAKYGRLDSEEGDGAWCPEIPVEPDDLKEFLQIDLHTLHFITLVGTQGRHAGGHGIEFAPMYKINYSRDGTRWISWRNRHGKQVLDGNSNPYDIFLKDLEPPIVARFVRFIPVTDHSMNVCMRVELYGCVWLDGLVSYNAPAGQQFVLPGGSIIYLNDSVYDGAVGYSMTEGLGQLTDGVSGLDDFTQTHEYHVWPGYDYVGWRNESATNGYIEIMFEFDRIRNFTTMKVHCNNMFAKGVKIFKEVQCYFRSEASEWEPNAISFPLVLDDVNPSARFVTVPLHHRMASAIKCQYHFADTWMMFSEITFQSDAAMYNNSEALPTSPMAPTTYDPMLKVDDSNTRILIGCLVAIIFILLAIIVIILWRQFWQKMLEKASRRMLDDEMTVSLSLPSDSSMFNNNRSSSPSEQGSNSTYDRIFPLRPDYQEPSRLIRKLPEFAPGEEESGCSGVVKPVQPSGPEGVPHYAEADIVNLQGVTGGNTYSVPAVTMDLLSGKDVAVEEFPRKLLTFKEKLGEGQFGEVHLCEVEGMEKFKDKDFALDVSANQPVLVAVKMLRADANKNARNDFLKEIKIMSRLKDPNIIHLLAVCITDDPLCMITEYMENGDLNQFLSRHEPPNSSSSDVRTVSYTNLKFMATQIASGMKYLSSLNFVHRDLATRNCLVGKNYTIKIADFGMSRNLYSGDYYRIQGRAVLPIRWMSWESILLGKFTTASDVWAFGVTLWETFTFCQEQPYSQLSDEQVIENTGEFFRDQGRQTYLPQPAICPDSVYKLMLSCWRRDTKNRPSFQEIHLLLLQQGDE
Test: DDR2 LanthaScreen Europium Kinase Binding assay
Settings: DDR2 Ki (nM), same binding assay; numeric values
TEST_READOUT: Ki (nM)

INSERT INTO assay_data (compound, data_value) VALUES
  ('Cc1ccc(C(=O)Nc2cccc(C(F)(F)F)c2)cc1C1CN1c1cccnc1 (stereo not shown) [Compound C1, reference compound]', 305);

---

Molecular target: DDR1 (Homo sapiens (Human), UniProt Q08345)
Sequence (Q08345 19-913): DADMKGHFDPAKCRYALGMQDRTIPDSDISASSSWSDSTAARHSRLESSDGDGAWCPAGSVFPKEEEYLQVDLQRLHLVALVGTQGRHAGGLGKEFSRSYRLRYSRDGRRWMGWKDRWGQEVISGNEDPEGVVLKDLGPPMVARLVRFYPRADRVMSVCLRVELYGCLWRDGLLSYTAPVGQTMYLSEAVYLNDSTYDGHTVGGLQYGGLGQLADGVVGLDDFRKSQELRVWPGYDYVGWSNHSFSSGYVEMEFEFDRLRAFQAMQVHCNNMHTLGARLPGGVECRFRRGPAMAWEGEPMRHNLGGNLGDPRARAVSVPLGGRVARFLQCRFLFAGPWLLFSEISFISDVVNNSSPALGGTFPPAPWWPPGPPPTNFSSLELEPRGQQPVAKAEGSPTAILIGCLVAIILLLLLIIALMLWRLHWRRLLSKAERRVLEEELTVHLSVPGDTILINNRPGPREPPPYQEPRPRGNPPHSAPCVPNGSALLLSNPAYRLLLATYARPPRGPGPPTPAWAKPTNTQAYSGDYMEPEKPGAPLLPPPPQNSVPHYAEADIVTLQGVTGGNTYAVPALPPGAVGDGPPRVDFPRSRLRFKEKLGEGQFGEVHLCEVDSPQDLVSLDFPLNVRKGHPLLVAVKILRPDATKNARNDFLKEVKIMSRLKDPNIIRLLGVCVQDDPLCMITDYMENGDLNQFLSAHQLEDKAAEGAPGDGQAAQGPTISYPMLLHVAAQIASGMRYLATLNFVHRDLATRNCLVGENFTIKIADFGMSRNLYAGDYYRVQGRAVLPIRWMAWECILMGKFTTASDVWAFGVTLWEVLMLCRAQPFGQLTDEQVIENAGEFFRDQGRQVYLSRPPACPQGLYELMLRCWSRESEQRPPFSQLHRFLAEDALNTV
Test: DDR1 LanthaScreen Europium Kinase Binding assay
Settings: binding; 5 nM DDR1, 20 nM Kinase Tracer 178, 1 hour at rt; Ki from IC50 by Cheng-Prusoff; read-out: Ki DDR1
Experimental: DDR1 and DDR2 binding assays were performed using Life Technologies LanthaScreen™ Europium Kinase Binding assay. […] The ratio of fluorescence emission 665 nm/615 nm after excitation at 340 nm was obtained using the Tecan Spark 20M plate reader. IC50 values were determined in GraphPad Prism 7.0 software, using 4 parameter model: log(inhibitor) vs. response. […]
pKi: −log10 of the molar value.
TEST_READOUT: pKi

INSERT INTO measurements (molecule, data_value) VALUES
  ('Cc1ccc(C(=O)Nc2cccc(C(F)(F)F)c2)cc1C1CCN(c2cncc(C(=O)NCCN(C)C)c2)C1 (stereo not drawn)', '> 8.00'),
  ('Cc1ccc(C(=O)Nc2cccc(C(F)(F)F)c2)cc1C1CCN(c2ccnc(C(N)=O)c2)C1 (single isomer, unassigned) [Example 54]', '> 8.00'),
  ('Cc1ccc(C(=O)Nc2cccc(C(F)(F)F)c2)cc1[C@@H]1CCN(c2cncc(N3CCC(F)(F)CC3)c2)C1', '> 8.00'),
  ('Cc1ccc(C(=O)Nc2ccc(CN3CCOCC3)c(C(F)(F)F)c2)cc1[C@@H]1CCN(c2cncc(C(N)=O)c2)C1', '> 8.00'),
  ('Cc1ccc(C(=O)Nc2cccc(C(F)(F)F)c2)cc1C1CCN(c2cncc(C(N)=O)c2)C1 (stereo not drawn)', '> 8.00'),
  ('Cc1ccc(C(=O)Nc2cccc(C(F)(F)F)c2)cc1C1CCN(c2cccnc2)C1 (stereo not drawn)', '> 8.00'),
  ('COCCNC(=O)c1cncc(N2CCC(c3cc(C(=O)Nc4cccc(C(F)(F)F)c4)ccc3C)C2)c1 (stereo not drawn)', '> 8.00'),
  ('COCCn1cc(Nc2ccc(N3CC[C@@H](c4cc(C(=O)Nc5cccc(C(F)(F)F)c5)ccc4C)C3)cn2)cn1', '7.60 to 8.00'),
  ('CC(=O)Nc1cncc(N2CC[C@@H](c3cc(C(=O)Nc4cccc(C(F)(F)F)c4)ccc3C)C2)c1', '> 8.00'),
  ('CO[C@@H]1CCCN(c2cncc(N3CC[C@@H](c4cc(C(=O)Nc5cccc(C(F)(F)F)c5)ccc4C)C3)c2)C1', '> 8.00'),
  ('Cc1ccc(C(=O)Nc2cccc(C(F)(F)F)c2)cc1C1CCN(c2ccnc(C#N)c2)C1 (stereo not drawn)', '7.22 to 7.60'),
  ('CNC(=O)c1cncc(N2CCC(c3cc(C(=O)Nc4cccc(C(F)(F)F)c4)ccc3C)C2)c1 (stereo not drawn)', '> 8.00'),
  ('Cc1ccc(C(=O)Nc2cccc(C(F)(F)F)c2)cc1[C@@H]1CCN(c2cncnc2)C1', '> 8.00'),
  ('COCCNC(=O)c1cncc(N2CC[C@@H](c3cc(C(=O)Nc4cccc(C(F)(F)F)c4)ccc3C)C2)c1', '> 8.00'),
  ('Cc1ccc(C(=O)Nc2cccc(C(F)(F)F)c2)cc1[C@@H]1CCN(c2cncc(C(F)F)c2)C1', '> 8.00'),
  ('Cc1ccc(C(=O)Nc2cccc(C(F)(F)F)c2)cc1C1CCN(C(=O)c2cccnc2)C1 (stereo not drawn)', '> 8.00'),
  ('Cc1ccc(C(=O)Nc2cccc(C(F)(F)F)c2)cc1C1CCN(c2cncc(OCCN3CCN(C)CC3)c2)C1 (stereo not drawn)', '> 8.00'),
  ('Cc1ccc(C(=O)Nc2cccc(C(F)(F)F)c2)cc1[C@@H]1CCN(c2cncc(C(N)=O)c2)C1', '> 8.00'),
  ('CNc1ncc(N2CC[C@@H](c3cc(C(=O)Nc4cccc(C(F)(F)F)c4)ccc3C)C2)cn1', '> 8.00'),
  ('Cc1ccc(C(=O)Nc2cccc(C(F)(F)F)c2)cc1[C@@H]1CCN(c2cnc3ccnn3c2)C1', '7.22 to 7.60'),
  ('Cc1ccc(C(=O)Nc2cccc(C(F)(F)F)c2)cc1C1CCN(c2ccnc(C(N)=O)c2)C1 (racemic) [Example 53]', '> 8.00');
